test system: Amaranthus retoflexus (AMARE); test: Pre-emergence glasshouse herbicide test; assay type: in vivo; details: pre-emergence (sprayed after one day cultivation), 1000 g/h, evaluated after 13 days, five point scale
The compounds listed here are annotated with their percentage damage caused to the plant, PRE Application AMARE.
assayReadout: percentage damage caused to the plant, PRE Application AMARE

>>> result("O=c1c(O)c(Cl)cnn1-c1ccc(C(F)(F)F)cc1C(F)(F)F")
"5 (5=80-100%)"
>>> result("C=Cc1cnn(-c2ccc(C(F)(F)F)cc2S(C)(=O)=O)c(=O)c1O")
"5 (5=80-100%)"
>>> result("O=c1c(O)c(Cl)cnn1-c1ccc(C(F)(F)F)cc1Cl")
"5 (5=80-100%)"
>>> result("CS(=O)(=O)c1cc(C(F)(F)F)ccc1-n1ncc(S(C)(=O)=O)c(O)c1=O")
"2 (2=20-39%)"
